biological target: ExsA (Pseudomonas aeruginosa); assay: Inhibition of ExsA-DNA binding, cell-free chemiluminescence assay
Sequence (P26993 whole entry): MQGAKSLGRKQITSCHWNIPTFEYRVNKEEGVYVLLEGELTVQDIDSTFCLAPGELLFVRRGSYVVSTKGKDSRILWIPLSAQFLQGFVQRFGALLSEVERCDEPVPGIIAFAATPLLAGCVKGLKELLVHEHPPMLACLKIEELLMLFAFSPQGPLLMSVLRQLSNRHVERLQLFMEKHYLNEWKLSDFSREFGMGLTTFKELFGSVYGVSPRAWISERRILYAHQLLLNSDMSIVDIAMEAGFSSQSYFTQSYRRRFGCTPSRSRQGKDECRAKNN
Give IC50 for every item shown.

Example entries and their recorded answers appear below.
>>> print(df.to_string())
                                test_smiles                            tgt       result
0  CSc1ccc(/C=C/C(=O)Nc2ccc(-c3nc4ccc(C#N)cc4n3O)cc2)cn1  ExsA (Pseudomonas aeruginosa)      < 10 µM
1  O=C(Nc1ccc(-c2nc3ccc([N+](=O)[O-])cc3n2O)cc1)c1ccc(OCC(F)(F)F)nc1  ExsA (Pseudomonas aeruginosa)  25 to 50 µM
2  CN(C)c1ccc(C(=O)Nc2ccc(-c3nc4ccc([N+](=O)[O-])cc4n3O)cc2)cn1  ExsA (Pseudomonas aeruginosa)  10 to 25 µM

Please state, for each entry, its recorded IC50.
1. CC(=O)c1ccc(C(=O)Nc2ccc(-c3nc4c(CC(=O)O)cc([N+](=O)[O-])cc4n3O)cc2)cc1
2. O=C(Nc1ccc(-c2nc3ccc([N+](=O)[O-])cc3n2O)cc1)c1ccc(N2CCCCC2)nc1
3. O=C(Nc1ccc(-c2nc3ccc([N+](=O)[O-])cc3n2O)cc1)c1cccc(N2CCOCC2)n1

Result block:
1: 25 to 50 µM; 2: 25 to 50 µM; 3: 10 to 25 µM

Please state, for each entry, its recorded IC50.
1. CSc1ccc2nc(-c3ccc(NC(=O)/C=C/c4ccc(C(C)=O)cc4)cc3)n(O)c2c1
2. O=C(Nc1ccc(-c2nc3ccc([N+](=O)[O-])cc3n2O)cc1)c1ccnc(N2CCOCC2)c1

Result block:
1: 10 to 25 µM; 2: > 50 µM

====

biological target: LcrF (VirF) (Yersinia pestis, UniProt P28808); assay: biochemical; assay type: binding, Y. pseudotuberculosis
Sequence (P28808 whole entry, looked up): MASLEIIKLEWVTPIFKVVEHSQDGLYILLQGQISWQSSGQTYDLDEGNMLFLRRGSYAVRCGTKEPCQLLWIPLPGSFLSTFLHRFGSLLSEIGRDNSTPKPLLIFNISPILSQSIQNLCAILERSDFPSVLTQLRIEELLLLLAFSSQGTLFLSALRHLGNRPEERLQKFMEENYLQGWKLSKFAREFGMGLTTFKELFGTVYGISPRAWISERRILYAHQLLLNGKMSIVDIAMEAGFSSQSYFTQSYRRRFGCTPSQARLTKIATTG
pIC50: −log10 of the molar value.
assay-endpoint: pIC50

Example entries and their recorded answers appear below.
In [3]: df
Out[3]:
                                test_smiles  result
0  N#Cc1ccc2nc(-c3ccc(NC(=O)c4ccc(C(O)(O)C(F)(F)F)cc4)cc3)n(O)c2c1  < 4.30
1  CSc1ccc2nc(-c3ccc(NC(=O)/C=C/c4ccc(C(C)=O)cc4)cc3)n(O)c2c1  < 4.30
2  O=C(Nc1ccc(-c2nc3ccc([N+](=O)[O-])cc3n2O)cc1)c1ccnc(N2CCOCC2)c1  < 4.30
3  CN1CCN(c2ccc(C(=O)Nc3ccc(-c4nc5ccc([N+](=O)[O-])cc5n4O)cc3)cn2)CC1  < 4.30

Please state, for each entry, its recorded pIC50.
1. O=C(/C=C/c1ccc(C(O)(O)C(F)(F)F)cc1)Nc1ccc(-c2nc3ccc([N+](=O)[O-])cc3n2O)cc1
2. CSc1ccc(/C=C/C(=O)Nc2ccc(-c3nc4ccc(C#N)cc4n3O)cc2)cc1
3. O=C(Nc1ccc(-c2nc3ccc([N+](=O)[O-])cc3n2O)cc1)c1ccc(N2CCCCC2)nc1
4. O=C(Nc1ccc(-c2nc3ccc([N+](=O)[O-])cc3n2O)cc1)c1ccc(OCC(F)(F)F)nc1

Result block:
1: < 4.30; 2: 4.30 to 4.60; 3: < 4.30; 4: 4.30 to 4.60

Data provenance: patent US20110059962A1
